System: CP252
test_description: qHTS profiling for inhibitors of Plasmodium falciparum proliferation (AID 504749); note: nearly all actives have a fitted effect of over 60% in size
study_conditions: P. falciparum in erythrocytes, SYBR Green DNA, 72 h; series mostly up to 28.7 µM
Records with an inconclusive call do not appear. Activity calls are given as the source filed them. Calls come from the whole dose curve; as a rule, active = well fitted inhibition curve with a large enough effect; inconclusive = small, poorly fitted or top-dose-only effect; inactive = flat fitted curve, though single readings scatter.
readout_type: outcome

Answered cases to consult:
compound	measured_result
CC(CC=O)CCCC(C)(C)O (configuration not stated)	inactive
O=C(O)CCC/C=C\C[C@@H]1[C@@H](/C=C/[C@@H](O)COc2cccc(Cl)c2)[C@H](O)C[C@@H]1O	inactive
NCCO/C=C/[C@H](N)C(=O)O	inactive
O=C(O)Cc1nn(Cc2ccc(Br)cc2F)c(=O)c2ccccc12	inactive
CC12CCC(C1)C(C)(C)C2=O (configuration not stated)	inactive

The compound listed as O=C(O)CCC/C=C\C[C@@H]1[C@@H](/C=C/[C@@H](O)COc2cccc(C(F)(F)F)c2)[C@H](O)C[C@@H]1O has a reported outcome of inactive
